Test system: UO-31 renal
protocol.notes: NCI tumour cell line growth inhibition, 48 h; in the data active means GI50 below about 0.43 µM; inactive means the rest
Tick one outcome: active, inactive

Below, 5 compounds whose answers are already recorded.
1) O=[N+]([O-])c1ccccc1N/N=C\c1c[nH]c2ccccc12	inactive
2) COc1ccc2c(c1)[nH]c(=O)c1c3cc(OC)ccc3cn21	active
3) c1cc2[nH]ncc2cc1-c1nc2ccc3[nH]ncc3c2c2c1CCCC2	inactive
4) O=C1C(=O)c2c(nc3ccc(Br)cn23)-c2ccccc21	inactive
5) Oc1ccc(O)c(-c2cn3ccsc3n2)c1	inactive

Pending compound:
Asked: Field: outcome | Entry: Clc1ccc2c(c1)N(CCCN1CCCC1)c1ccccc1S2
Given back: inactive

---

Test system: OVCAR-8 ovarian
protocol.notes: NCI tumour cell line growth inhibition, 48 h; in the data active means GI50 below about 0.43 µM; inactive means the rest
Tick one outcome: active, inactive

Below, 2 compounds whose answers are already recorded.
1. CC1(C)CCC2=C(O1)c1ccccc1C(=O)C2=O	inactive
2. Cc1ccccc1-n1ncc(C(=O)c2ccccc2)c1N	inactive

Asked: Field: outcome | Entry: CCCCCCCCN(CCCCCCCC)CCCCCCNc1cc(OC)cc2cccnc12
Given back: inactive

Asked: Field: outcome | Entry: Cc1cc(O)ccc1C1=NN(c2ccc(S(C)(=O)=O)cc2)C(=O)CC1
Given back: inactive

Asked: Field: outcome | Entry: CCN1C(=O)N(CC)C2Nn3c(s/c(=C\c4ccccc4Br)c3=O)=NC21 (stereo unspecified)
Given back: inactive

Asked: Field: outcome | Entry: COc1ccc2c(c1)[n+](=O)c(C(=O)c1ccco1)c(C(F)(F)F)n2[O-]
Given back: inactive

Asked: Field: outcome | Entry: O=C1C(=O)c2c(nc3ccc(Br)cn23)-c2ccccc21
Given back: inactive

Asked: Field: outcome | Entry: COc1ccc2c(c1)[nH]c(=O)c1c3cc(OC)ccc3cn21
Given back: active

Asked: Field: outcome | Entry: O=C(c1ccccc1)c1ccc(Oc2ccc([N+](=O)[O-])cc2[N+](=O)[O-])cc1
Given back: inactive

Asked: Field: outcome | Entry: C=C(C)[C@@H]1CC[C@]2(C(=O)O)CC[C@]3(C)[C@H](CC[C@@H]4[C@@]5(C)C[C@@H](CC#Cc6ccc(C(F)(F)F)cc6)[C@H](O)C(C)(C)[C@@H]5CC[C@]43C)[C@@H]12
Given back: inactive

Asked: Field: outcome | Entry: Oc1ccc(O)c(-c2cn3ccsc3n2)c1
Given back: inactive

---

Tested on: HCT-15 colon
protocol.notes: NCI tumour cell line growth inhibition, 48 h
value.type: TGI

Some solved cases for reference:
1) O=C1NC(=O)C2(CCCCCC2)N1	> 100 µM
2) CCOC(=O)[C@@]12C[C@](/C=C/OC)(O[Si](C)(C)C)[C@@]13c1cc(OC)c(OC)cc1CCN3C(=O)C2O (stereo partly specified)	> 100 µM
3) COc1cccc(/C=N/[N-]C(N)=O)c1[O-].[Ni+2].[OH3+].c1ccc(-c2ccccn2)nc1	> 100 µM

Asked: Query TGI on HCT-15 colon for O=C(c1ccccc1)c1ccc(-n2c3ccccc3c3ccc4c(c32)C(=O)C=CC4=O)cc1
Given back: 31.3 µM

Asked: Query TGI on HCT-15 colon for CC(C)NC(=O)OCc1c(COC(=O)NC(C)C)c(-c2cc[n+](COC(=O)C(C)(C)C)cc2)n2c1CCC2
Given back: > 100 µM

Asked: Query TGI on HCT-15 colon for Cc1ccc(NC(=O)C(=O)C(C#N)c2nc(-c3ccc(-c4ccccc4)cc3)cs2)c(C)c1 (stereo unspecified)
Given back: > 100 µM

Asked: Query TGI on HCT-15 colon for Cc1nnc2sc(NN)nn12
Given back: > 100 µM

Asked: Query TGI on HCT-15 colon for Cc1[nH]nc(N)c1C(N)=O
Given back: > 100 µM

Asked: Query TGI on HCT-15 colon for CCOc1ccc(N/C(Cl)=C(Cl)\C(=C(\Nc2ccc(OCC)cc2)n2nnc3ccccc32)[N+](=O)[O-])cc1
Given back: 7.4 µM

Asked: Query TGI on HCT-15 colon for CNC(=O)SCC(N)C(=O)O (stereo unspecified)
Given back: > 100 µM

Asked: Query TGI on HCT-15 colon for CC1=NOC(=O)/C1=C/c1cccc2ccccc12
Given back: > 100 µM
